tested system: Mushroom Tyrosinase (mushroom)
method: cell-based or functional assay
property label: % INHIBITION TYROSINASE
For clarity, give the value followed by its unit.

Dear colleague, I am looking for the recorded % INHIBITION TYROSINASE of the following binder: ISLLDAQS (HELM PEPTIDE1{[CCCCCCCCCCCCCCCC(=O)[*:2]].I.S.[dL].L.D.[dA].Q.S.[am]}$$$$V2.0; SMILES CCCCCCCCCCCCCCCC(=O)N[C@H](C(=O)N[C@@H](CO)C(=O)N[C@H](CC(C)C)C(=O)N[C@@H](CC(C)C)C(=O)N[C@@H](CC(=O)O)C(=O)N[C@H](C)C(=O)N[C@@H](CCC(N)=O)C(=O)N[C@@H](CO)C(N)=O)[C@@H](C)CC) [Palm-Ile-Ser-(d)Leu-Leu-Asp-(d)Ala-Gln-Ser-NH2] 48%
